FYI, the data here is from the supplement of paper PMC13380429.

- Tested on: Caco-2
- protocol: cell viability relative to DMSO; higher = less toxic
- conditionSummary: 72 h; 10000 nM
Sorting guide: entries reporting cell viability beneath 90% go in the 1 (yes) pile, the rest go in the 0 (no) pile.

# molecule, assignedClass
rows = [
    ("OCCn1cc(-c2ccc3c(c2)CC/C3=N\\O)c(-c2ccncc2)n1", "0 (no)"),
    ("C#C[C@]1(O)CC[C@H]2[C@@H]3CCc4cc(OC5CCCC5)ccc4[C@H]3CC[C@@]21C", "1 (yes)"),
    ("Fc1ccc(CN2CCC(Nc3ccc(C(F)(F)F)nn3)CC2)cc1F", "0 (no)"),
    ("N[C@@H](CSCCCO)C(=O)O", "0 (no)"),
    ("CC(C)=CCC/C(C)=C/CC/C(C)=C/CCC(=O)OC/C=C(\\C)CCC=C(C)C [geranyl-farnesylacetate]", "0 (no)"),
    ("COc1cc2ncnc(Nc3ccc(F)c(Cl)c3)c2cc1NC(=O)/C=C/CN1CCCCC1", "1 (yes)"),
]

###

- System: Calu-3
- protocol: cell viability relative to DMSO; higher = less toxic
- conditionSummary: 72 h; 1 nM

# compound, cell viability [%]
records = [
    ("C[C@H]1C[C@H]2[C@@H]3CCC4=CC(=O)C=C[C@]4(C)[C@H]3C(=O)C[C@]2(C)[C@@]1(O)C(=O)CO", 92.9),
    ("CC/C(=C(\\c1ccccc1)c1ccc(OCCN(C)C)cc1)c1ccccc1", 103),
    ("CNC(=O)COC(=O)NCCC1CCN(c2cccc(C)n2)CC1", 98.4),
    ("COc1cc2ncnc(Nc3ccc(F)c(Cl)c3)c2cc1NC(=O)/C=C/CN1CCCCC1", 83.5),
    ("Cc1cc(C)c(CNC(=O)c2cc(-c3ccc(CN4CCOCC4)cc3)cc3c2cnn3C2CCCC2)c(=O)[nH]1", 98),
    ("Nc1ncn([C@H]2C[C@H](O)[C@@H](CO)O2)c(=O)n1", 109),
    ("C#Cc1cccc(Nc2ncnc3cc(OCCOC)c(OCCO)cc23)c1", 115),
    ("CC(C)(COP(=O)(O)OP(=O)(O)OC[C@H]1O[C@@H](n2cnc3c(N)ncnc32)[C@H](O)[C@@H]1OP(=O)(O)O)[C@@H](O)C(=O)NCCC(=O)NCCS", 100),
    ("N=C(N)NN=C1C=CC(=NNC(N)=S)C=C1", 105),
    ("O=C(Nc1cc(Oc2cc(F)c(NC(=O)C3(C(=O)Nc4ccc(F)cc4)CC3)cc2F)ccn1)C1CC1", 98.5),
    ("NC[C@H]1O[C@H](O[C@H]2[C@H](O[C@@H]3O[C@H](CO)[C@@H](O)[C@H]3O)[C@@H](O)[C@H](N)C[C@@H]2N)[C@H](N)[C@@H](O)[C@@H]1O [ribostamycin-sulfate]", 93.8),
    ("Cc1nc2ccc(-n3ncc(C(=O)c4cc5ccccc5[nH]4)c3N)cc2[nH]1", 100),
    ("O=C(CCCCCCCC(=O)NCCO)NCCO", 94.2),
]

###

cell viability values for the compounds below.
- Test system: U2OS
- protocol: cell viability relative to DMSO; higher = less toxic
- conditionSummary: 72 h; 1 nM

# compound, cell viability (%)
rows = [
    ("Cc1cc(-c2nc(-c3ccc(OC(F)(F)F)cc3)no2)nn1Cc1ccnc(N2CCN(C3CC3)CC2)c1 [BAY-87-2243]", 97.3),
    ("Cc1cc2c(C(N)=O)cccc2n1-c1nc2c(c(NCc3ccccc3)n1)COCC2 [CB-5083]", 100),
    ("CC(C)NCC(O)COc1cccc2ccccc12 (centres undefined) [propranolol]", 96.1),
    ("Cc1nc2ccccc2c(-c2ccc3c4c(ccnc24)CCO3)c1[C@H](OC(C)(C)C)C(=O)O", 97.6),
]
